- study target: iNOS (Homo sapiens, UniProt P35228)
- assay comment: abcam NOS Inhibitor Screening Kit, IC50 (fluorescence)
- Type: biochemical
- Set-up: IC50; IC50
- assay setup: abcam NOS Inhibitor Screening Kit, Table C-2
Entries annotated with measured pIC50
Expect pIC50 as a plain number equal to -log10 of the molar concentration.

molecule	study target	quantitative result
N#Cc1ccc(Cl)cc1OC(CCN)c1ccnc(N)c1 (stereo not shown)	iNOS (Homo sapiens, UniProt P35228)	7.55
O=C1c2ccccc2C(=O)N1CC[C@@H](Oc1cc(Cl)cc2[nH]ncc12)c1ccccc1	iNOS (Homo sapiens, UniProt P35228)	6.57
N#Cc1ccc(Cl)cc1OC(CCN1C(=O)c2ccccc2C1=O)c1ccn2ccnc2c1 (stereo not shown)	iNOS (Homo sapiens, UniProt P35228)	7.17
N#Cc1ccc(Cl)cc1C(=O)N(CCNCCCO)c1ccccc1	iNOS (Homo sapiens, UniProt P35228)	6.54
NCC[C@@H](Oc1cc(Cl)cc2[nH]ncc12)c1ccccc1	iNOS (Homo sapiens, UniProt P35228)	6.64

The molecule listed as N#Cc1ccc(Cl)cc1C(=O)N(CCNCC1CC1)c1ccccc1 has a reported pIC50 of 6.36

The molecule listed as CNCC[C@@H](Oc1cc(Cl)cc2[nH]cnc12)c1ccccc1 has a reported pIC50 of 6.34

The molecule listed as CNCC[C@@H](Oc1cc(Cl)cc2[nH]ncc12)c1ccccc1 has a reported pIC50 of 6.60

The molecule listed as N#Cc1ccc(Cl)cc1C(=O)N(CCNCCO)c1ccccc1 has a reported pIC50 of 6.83

The molecule listed as NCC[C@@H](Oc1cc(Cl)cc2[nH]cnc12)c1ccccc1 has a reported pIC50 of 6.81
